Data credit: PubChem BioAssay AID1159580

# assay overview: chemical genetic growth profiling, strain panel (AID 1159580);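 further: tested at 20 µM; growth read once vehicle control cultures reached saturation at 30 °C; 1 = growth at the plate median or of vehicle wells; lower values mean less growth of the strain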
# experimental parameters: S. cerevisiae deletion strains, growth OD, locus YJL095W, strain BCK1, active compounds read low
Screen size: about 5,500 compounds; about 2,000 (36%) were called active. Not shown: some 18% with an inconclusive outcome. This is one part of the list.
Consider the following compounds; for each one, report its normalized growth.
Numbers only.

1) COc1ccc(-c2cc(=O)c3c(OC)c(OC)c(OC)c(OC)c3o2)cc1; 0.984
2) CC[C@]12C=CCN3CC[C@@]4(c5ccc(OC)cc5N(C)C4[C@@](O)(C(=O)OC)[C@@H]1OC(C)=O)[C@@H]32 (stereo not given in full); 0.983
3) CCCCCCCCCCCCCCCCCCCCCCO; 0.989
4) CCC1C2CC3C4N(C)c5ccccc5C45CC(C2C5OC(C)=O)N3C1OC(C)=O (stereo not given); 1.01

// input: 8 compounds below; output: normalized growth for each
1. CC(=O)O[C@H]1C[C@@]2(C)[C@H](c3ccoc3)OC(=O)[C@H]3O[C@]32[C@@]2(C)C1[C@]1(C)C(C[C@H]2OC(C)=O)C(C)(C)[C@H](OC(C)=O)C[C@@H]1OC(C)=O (stereo not given in full)
2. CC(O)(CNCc1ccc(Cl)cc1)CSc1ccccc1Cl (stereo not given)
3. CC(=O)O[C@@H]1CC2C(C)(C)CCC(=O)[C@]2(C)C2CC[C@@]3(C)[C@H](c4ccoc4)OC(=O)C4OC43[C@@]21C (stereo not given in full)
4. Cc1ccc2c(c1)CCCN2CC(=O)N(c1ccccc1)C1CCCCC1
5. CC(=O)OC1CC2C(C)(C)CCCC2(C)C2CCC3(C)C(c4ccoc4)OC(=O)C4OC43C12C (stereo not given)
6. N#CCC(=O)c1cccc(CSc2ccccc2Cl)c1
7. CC(C)c1ccc(-c2cc(=O)c3ccccc3o2)cc1
8. O=C1CCc2ccc(OCCCCN3CCN(c4cccc(Cl)c4Cl)CC3)cc2N1

Reply text:
1. 1.02
2. 1.02
3. 0.988
4. 0.965
5. 0.991
6. 0.213
7. 0.82
8. 0.955
